- measuredTarget: factor VIIa/tissue factor (Homo sapiens, UniProt P13726)
- Construct: purchased American Diagnostica, Inc. (TF); Novo Nordisk A/S (FVIIa)
- Sequence (P13726 33-295): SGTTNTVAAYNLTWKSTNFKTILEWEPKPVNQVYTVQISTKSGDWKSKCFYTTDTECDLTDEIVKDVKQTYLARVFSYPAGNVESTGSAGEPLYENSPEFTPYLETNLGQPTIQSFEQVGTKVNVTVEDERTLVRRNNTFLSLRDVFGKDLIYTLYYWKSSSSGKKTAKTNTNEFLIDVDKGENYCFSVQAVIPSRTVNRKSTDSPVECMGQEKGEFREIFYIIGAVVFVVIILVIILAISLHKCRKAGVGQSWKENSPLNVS
- experimentNotes: two-stage chromogenic assay of factor VIIa/tissue factor-catalysed factor X activation
- Type: biochemical
- conditionNotes: summary values in the description; read-out: IC50 in the two-stage chromogenic assay of A. Kumar et al.
pIC50: −log10 of the molar value. Positions of bridges follow the written chain, without caps; N, C: chain ends. Residues, ends and D or L forms follow the SMILES beside them.
measuredEndpoint: pIC50

1. NC(=O)CC[C@@H]1NC(=O)[C@H](CCC(=O)O)NC(=O)[C@@H](N)CSSC[C@@H](C(=O)O)NC(=O)[C@H](Cc2ccc(O)cc2)NC1=O (H-CEQYC-OH; disulfide 1-5) = 5.00
